Tested on: MCF7
Protocol Details: Cytotoxicity against human breast cancer(MCF-7) cell lines.
Format: functional
Condition Summary: read-out: ED50 (the source's name)

[
  {
    "Test Smiles": "Oc1ccc([C@@H]2c3c(O)cc(O)cc3[C@@H]3c4c(cc(O)cc4[C@H]2[C@@H]2c4cc(O)cc5c4[C@@H](c4cc(O)cc(O)c4[C@H]2c2ccc(O)cc2)[C@H](c2ccc(O)cc2)O5)O[C@H]3c2ccc(O)cc2)cc1",
    "Readout Relation": "=",
    "EC50, µg/mL": 4.2
  },
  {
    "Test Smiles": "Oc1ccc([C@H]2c3c(O)cc(O)cc3[C@H]3c4c(cc(O)cc4[C@@H]2O)O[C@@H]3c2ccc(O)cc2)cc1",
    "Readout Relation": ">",
    "EC50, µg/mL": 20
  },
  {
    "Test Smiles": "CC(=O)Oc1ccc([C@@H]2c3c(OC(C)=O)cc(OC(C)=O)cc3[C@@H]3c4c(OC(C)=O)cc(OC(C)=O)cc4C2[C@H]3c2ccc(OC(C)=O)cc2)cc1",
    "Readout Relation": ">",
    "EC50, µg/mL": 10
  },
  {
    "Test Smiles": "CC(=O)Oc1ccc([C@H]2c3c(OC(C)=O)cc(OC(C)=O)cc3[C@H]3c4c(cc(OC(C)=O)cc4[C@@H]2OC(C)=O)O[C@@H]3c2ccc(OC(C)=O)cc2)cc1",
    "Readout Relation": "=",
    "EC50, µg/mL": 2
  },
  {
    "Test Smiles": "CC(=O)Oc1ccc(/C=C/c2cc(OC(C)=O)cc3c2[C@H](c2cc(OC(C)=O)cc(OC(C)=O)c2)[C@@H](c2ccc(OC(C)=O)cc2)O3)cc1",
    "Readout Relation": "=",
    "EC50, µg/mL": 4
  },
  {
    "Test Smiles": "CC(=O)Oc1ccc([C@@H]2c3c(OC(C)=O)cc(OC(C)=O)cc3[C@H]3[C@H](c4ccc(OC(C)=O)cc4)c4c(OC(C)=O)cc(OC(C)=O)cc4[C@@H]23)cc1",
    "Readout Relation": "=",
    "EC50, µg/mL": 7.4
  }
]

###

System: 1A9
Protocol Details: Cytotoxicity against human ovarian cancer (1A9) cell lines.
Format: functional
Condition Summary: read-out: ED50 (the source's name)
Entries and their EC50

[
  {
    "Test Smiles": "CC(=O)Oc1ccc([C@H]2c3c(OC(C)=O)cc(OC(C)=O)cc3[C@H]3c4c(cc(OC(C)=O)cc4[C@@H]2OC(C)=O)O[C@@H]3c2ccc(OC(C)=O)cc2)cc1",
    "Study Target": "1A9",
    "Result Unit": "µg/mL",
    "Readout Relation": "=",
    "EC50": 0.7
  },
  {
    "Test Smiles": "Oc1ccc([C@@H]2c3c(O)cc(O)cc3[C@@H]3c4c(cc(O)cc4[C@H]2[C@@H]2c4cc(O)cc5c4[C@@H](c4cc(O)cc(O)c4[C@H]2c2ccc(O)cc2)[C@H](c2ccc(O)cc2)O5)O[C@H]3c2ccc(O)cc2)cc1",
    "Study Target": "1A9",
    "Result Unit": "µg/mL",
    "Readout Relation": "=",
    "EC50": 7.8
  },
  {
    "Test Smiles": "Oc1ccc([C@H]2c3c(O)cc(O)cc3[C@H]3c4c(cc(O)cc4[C@@H]2O)O[C@@H]3c2ccc(O)cc2)cc1",
    "Study Target": "1A9",
    "Result Unit": "µg/mL",
    "Readout Relation": ">",
    "EC50": 20
  },
  {
    "Test Smiles": "CC(=O)Oc1ccc([C@@H]2c3c(OC(C)=O)cc(OC(C)=O)cc3[C@@H]3c4c(OC(C)=O)cc(OC(C)=O)cc4C2[C@H]3c2ccc(OC(C)=O)cc2)cc1",
    "Study Target": "1A9",
    "Result Unit": "µg/mL",
    "Readout Relation": "=",
    "EC50": 6
  },
  {
    "Test Smiles": "CC(=O)Oc1ccc(/C=C/c2cc(OC(C)=O)cc3c2[C@H](c2cc(OC(C)=O)cc(OC(C)=O)c2)[C@@H](c2ccc(OC(C)=O)cc2)O3)cc1",
    "Study Target": "1A9",
    "Result Unit": "µg/mL",
    "Readout Relation": "=",
    "EC50": 5.8
  },
  {
    "Test Smiles": "CC(=O)Oc1ccc([C@@H]2c3c(OC(C)=O)cc(OC(C)=O)cc3[C@H]3[C@H](c4ccc(OC(C)=O)cc4)c4c(OC(C)=O)cc(OC(C)=O)cc4[C@@H]23)cc1",
    "Study Target": "1A9",
    "Result Unit": "µg/mL",
    "Readout Relation": "=",
    "EC50": 3.2
  }
]

The measurements presented in this section are drawn from ChEMBL document CHEMBL1131861.
